Each entry below carries its recorded MIC.
- Tested on: Staphylococcus aureus
- Protocol: MIC agar dilution, micro-organism 13 (6571)
- Assay type: cell-based
- Measurement Parameters: Staphylococcus aureus, 22 h, Staphylococcus aureus 6571; 22 hrs; read-out: MIC
- Procedure: Throughout the period of testing the microbial strains were subcultured and incubated for 18-20 hours at 37° C. on a weekly basis. Horse blood agar plates were used to sustain the micro-organisms both prior to and throughout testing. […] Each plate was examined for bacterial growth after 22 and 48 hours, with each being incubated in between examinations. A positive result was recorded as growth of ≧10 colonies. […] The lowest concentration of chemical that inhibited growth was recorded as the MIC. […]
// return numeric value only (unit: µM, not printed)

input: Any idea what MIC was measured for "CCCCCCCCCCCCOCCO" ?
output: 220

input: Any idea what MIC was measured for "CCCCCCCCCCCCOCCOCCOCCOCCOCCO" ?
output: 110

input: Any idea what MIC was measured for "CCCCCCCCCCCCOCCOCCOCCOCCO" ?
output: 110

input: Any idea what MIC was measured for CCCCCCCCCCCCO [L0, 1-Dodecanol, reference compound] ?
output: 440

Values were extracted from patent US20130165368A1.
